The following molecules are shown together with reported tissue uptake at 4 h values.
Method summary: in vivo
Particulars: BALB/c nude, mouse, in vivo, iv, total radioactivity, % ID/g Liver
Express it in %ID/g; write the number only.

Molecule	Value observed
C[C@@H](O)[C@H](NC(=O)[C@@H]1CSSC[C@H](NC(=O)[C@@H](Cc2ccccc2)NC(=O)COCCOCCNC(=O)[C@H](CCCCNC(=O)c2cccc(NC(=O)N[C@@H]3CN(C4CCCCC4)c4ccccc4N(CC(=O)C(C)(C)C)C3=O)c2)NC(=O)CN2CCN(CC(=O)O)CCN(CC(=O)O)CCN(CC(=O)O)CC2)C(=O)N[C@@H](Cc2ccc(O)cc2)C(=O)N[C@H](Cc2c[nH]c3ccccc23)C(=O)N[C@@H](CCCCN)C(=O)N[C@@H]([C@@H](C)O)C(=O)N1)C(=O)O [Compound 177Lu-I-37, metal not drawn]	11

Measured tissue uptake at 4 h of C[C@@H](O)[C@H](NC(=O)[C@@H]1CSSC[C@H](NC(=O)[C@@H](Cc2ccccc2)NC(=O)COCCOCCNC(=O)COCCOCCNC(=O)[C@H](CCCCNC(=O)c2cccc(NC(=O)N[C@@H]3CN(C4CCCCC4)c4ccccc4N(CC(=O)C(C)(C)C)C3=O)c2)NC(=O)CN2CCN(CC(=O)O)CCN(CC(=O)O)CCN(CC(=O)O)CC2)C(=O)N[C@@H](Cc2ccc(O)cc2)C(=O)N[C@H](Cc2c[nH]c3ccccc23)C(=O)N[C@@H](CCCCN)C(=O)N[C@@H]([C@@H](C)O)C(=O)N1)C(=O)O [Compound 177Lu-I-39, metal not drawn] : 6.35

====

The following compounds are shown together with reported tissue uptake at 72 h values.
Method summary: in vivo
Particulars: BALB/c nude, mouse, in vivo, iv, total radioactivity, % ID/g Liver
Express it in %ID/g; write the number only.

Compound	Unit descriptor	tissue uptake at 72 h
C[C@@H](O)[C@H](NC(=O)[C@@H]1CSSC[C@H](NC(=O)[C@@H](Cc2ccccc2)NC(=O)COCCOCCNC(=O)[C@H](CCCCNC(=O)c2cccc(NC(=O)N[C@@H]3CN(C4CCCCC4)c4ccccc4N(CC(=O)C(C)(C)C)C3=O)c2)NC(=O)CN2CCN(CC(=O)O)CCN(CC(=O)O)CCN(CC(=O)O)CC2)C(=O)N[C@@H](Cc2ccc(O)cc2)C(=O)N[C@H](Cc2c[nH]c3ccccc23)C(=O)N[C@@H](CCCCN)C(=O)N[C@@H]([C@@H](C)O)C(=O)N1)C(=O)O [Compound 177Lu-I-37, metal not drawn]	%ID/g	2.03

Measured tissue uptake at 72 h of C[C@@H](O)[C@H](NC(=O)[C@@H]1CSSC[C@H](NC(=O)[C@@H](Cc2ccccc2)NC(=O)COCCOCCNC(=O)COCCOCCNC(=O)[C@H](CCCCNC(=O)c2cccc(NC(=O)N[C@@H]3CN(C4CCCCC4)c4ccccc4N(CC(=O)C(C)(C)C)C3=O)c2)NC(=O)CN2CCN(CC(=O)O)CCN(CC(=O)O)CCN(CC(=O)O)CC2)C(=O)N[C@@H](Cc2ccc(O)cc2)C(=O)N[C@H](Cc2c[nH]c3ccccc23)C(=O)N[C@@H](CCCCN)C(=O)N[C@@H]([C@@H](C)O)C(=O)N1)C(=O)O [Compound 177Lu-I-39, metal not drawn] : 1.24
